system: barnyardgrass; test: Test D flooded paddy test; assay type: in vivo, Echinochloa crus-galli; conditions: 250 g ai/ha, applied to paddy water, visual rating after 13 to 14 days, scale 0 to 100 (0 no effect, 100 complete control)
measurementType: Plant response rating, Barnyardgrass (Flood)
Give bare numbers.

COc1ccc(-n2cnc(C3CCC3)n2)cc1C(=O)N1C[C@H](C)Oc2c(Cl)cccc21 = 30
CC(C)c1cc(C(=O)N2C[C@H](C)Oc3c(Cl)cccc32)cc(-n2cncn2)c1 = 0
COc1cc(C(=O)N2C[C@H](C)Oc3c(Cl)cccc32)cc(-n2cnc(C(C)(C)C)n2)c1 = 20
Cc1cccc2c1OC(C(F)(F)F)CN2C(=O)c1cccc(-n2cnc(C(C)C)n2)c1 (single isomer, unassigned) = 0
CCc1ncn(-c2cc3c(c(C(=O)N4C[C@H](C)Oc5c(Cl)cccc54)c2)OCCO3)n1 = 20

Shift focus to the following entry.
Return reported Plant response rating, Barnyardgrass (Flood). Input molecule: COCc1ncn(-c2ccc(C)c(C(=O)N3C[C@H](C)Oc4c(Cl)cccc43)c2)n1
10
